- SYSTEM_NAME: Human IP6K1 (Homo sapiens)
- Construct: GST (N, cleaved yes); made in house; host or cells: C43 E. coli, pGEX-6P-2
- MEASUREMENT_DESCRIPTION: IP6K1 high-throughput screen of the Sigma LOPAC (ADP-Glo Max, single point);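 note: final compound concentration 10µM in 5% DMSO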
- Format: biochemical
- EXPERIMENTAL_PARAMETERS: Sigma LOPAC single-point screen; Z-score from plate average and StDev
Let's look at some compounds and their measured Z-score.
RESULT_TYPE: Z-score

>>> result("O=C([O-])/C=C/C(O)c1ccc(Cl)cc1.[Na+] (centres unmarked)")
0.7688
>>> result("Cc1cnc(C(=O)NCCc2ccc(S(=O)(=O)NC(=O)NC3CCCCC3)cc2)cn1 [Glipizide]")
0.9852
>>> result("COc1ccccc1NC(=O)Nc1nc(-c2cccnc2)nc2ccccc12")
0.4028
>>> result("NC(=O)CN1CCCC1=O")
0.6451
>>> result("Nc1ccc(N2C(=O)c3ccccc3C2=O)c(Cl)c1 [N-(4-Amino-2-chlorophenyl)phthalimide]")
0.58

---

- SYSTEM_NAME: Human IP6K1 (Homo sapiens, UniProt Q92551)
- Construct: GST (N, cleaved yes); made in house; host or cells: C43 E. coli, pGEX-6P-2
- Sequence (Q92551 whole entry): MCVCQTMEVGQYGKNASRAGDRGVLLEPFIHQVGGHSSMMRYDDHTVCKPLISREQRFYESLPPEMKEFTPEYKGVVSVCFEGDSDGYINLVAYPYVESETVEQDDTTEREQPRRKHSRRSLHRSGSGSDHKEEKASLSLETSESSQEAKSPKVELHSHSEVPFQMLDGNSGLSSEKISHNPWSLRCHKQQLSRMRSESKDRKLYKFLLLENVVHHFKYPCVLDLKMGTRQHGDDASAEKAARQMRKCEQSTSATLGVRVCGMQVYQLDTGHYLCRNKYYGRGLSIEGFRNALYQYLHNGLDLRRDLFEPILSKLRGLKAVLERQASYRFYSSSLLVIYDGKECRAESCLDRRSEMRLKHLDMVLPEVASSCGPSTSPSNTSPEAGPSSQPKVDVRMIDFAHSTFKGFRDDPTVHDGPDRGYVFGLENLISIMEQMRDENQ
- MEASUREMENT_DESCRIPTION: IP6K1 high-throughput screen of the Sigma LOPAC (ADP-Glo Max, single point);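 note: final compound concentration 10µM in 5% DMSO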
- Assay type: biochemical
- EXPERIMENTAL_PARAMETERS: LOPAC single-point screen, ADP-Glo Max raw signal per well
Counter-ions that a name gives are not always drawn.
RESULT_TYPE: Raw Signal

>>> result("O=c1ccc2ccc(O)c(O)c2o1")
55045
>>> result("N[C@@H](CCC(=O)N[C@@H](CSN=O)C(=O)NCC(=O)O)C(=O)O")
53456
>>> result("CC(N)=NCc1cccc(CN)c1.Cl.Cl [1400W dihydrochloride]")
55005
>>> result("CC(C)CN(C)c1nc(N)c(C(=O)N=C(N)N)nc1Cl [5-(N-Methyl-N-isobutyl)amiloride]")
57481
>>> result("N[C@@H](CCCC(=O)O)C(=O)O")
59199
>>> result("C[N+]1(C)CCN(c2ccccc2)CC1.[I-]")
55993
>>> result("COc1cccc(-c2cc(=O)c3ccccc3o2)c1N")
54412
>>> result("NC(N)=NCCCCN=C(N)N [Arcaine sulfate]")
57202
>>> result("COc1cc(C(O)CO)ccc1OS(=O)(=O)[O-].[K+] (stereo not shown) [MHPG sulfate potassium]")
56093
>>> result("CC1=C(/C=C/C(C)=C/C=C/C(C)=C/C=C/C=C(C)/C=C/C=C(C)/C=C/C2=C(C)C(=O)[C@@H](O)CC2(C)C)C(C)(C)C[C@H](O)C1=O")
57440
>>> result("CNCCc1c[nH]c2ccc(O)cc12.O=C(O)C(=O)O")
53556
>>> result("C#C[C@]1(O)CC[C@H]2[C@@H]3CCC4=Cc5oncc5C[C@]4(C)[C@H]3CC[C@@]21C")
54357
>>> result("O=C1NCN(c2ccccc2)C12CCN(CC1COc3ccccc3O1)CC2 (stereo not shown)")
55965
>>> result("COC(=O)[C@H]1[C@H]2C[C@@H]3c4[nH]c5cc(OC)ccc5c4CCN3C[C@H]2C[C@@H](OC(=O)c2cc(OC)c(OC)c(OC)c2)[C@@H]1OC")
59002
>>> result("CN1[C@@H]2CC[C@H]1C[C@@H](OC(=O)C(CO)c1ccccc1)C2 (stereo partly shown) [Atropine sulfate]")
57358
>>> result("COc1ccc2c(c1)c(CC(=O)O)c(C)n2C(=O)c1ccc(Cl)cc1")
54719
>>> result("C=C[C@H]1C[N@@]2CC[C@H]1C[C@@H]2[C@@H](O)c1ccnc2ccc(OC)cc12 [Quinidine sulfate]")
56373
>>> result("CC(C)(C)NCC(O)c1ccccc1Cl (stereo not shown) [Tulobuterol hydrochloride]")
54303
>>> result("C[N+](C)(C)CC=O [Betaine aldehyde chloride]")
58689
>>> result("Nc1ccc(CCN2CCN(c3cccc(C(F)(F)F)c3)CC2)cc1")
56132
>>> result("CCCCc1oc2ccccc2c1C(=O)c1cc(I)c(OCCN(CC)CC)c(I)c1 [Amiodarone hydrochloride]")
57216
>>> result("CN(C)CCC(c1ccccc1)c1ccccn1 (stereo not shown) [Pheniramine maleate]")
57488
>>> result("Cn1c(=O)c2[nH]c(-c3ccc(S(=O)(=O)O)cc3)nc2n(C)c1=O")
56907
>>> result("O=C1CC[C@@]2(O)[C@H]3Cc4ccc(O)c5c4[C@@]2(CCN3CC2CC2)[C@H]1O5 [Naltrexone hydrochloride]")
52231
>>> result("N[C@H]1CON=C1O")
56773
>>> result("NC[C@@H]1O[C@H](O[C@H]2[C@@H](O)[C@H](O[C@@H]3[C@@H](O)[C@H](N)C[C@H](N)[C@H]3O[C@H]3O[C@H](CO)[C@@H](O)[C@H](O)[C@H]3N)O[C@@H]2CO)[C@H](N)[C@@H](O)[C@@H]1O [Paromomycin sulfate]")
55765
>>> result("Oc1ccc(-c2nc(-c3ccncc3)c(-c3ccc(F)cc3)[nH]2)cc1")
58086
>>> result("OC(CN1CCN(c2cccc(Cl)c2)CC1)C(c1ccccc1)c1ccccc1 (stereo not shown)")
57949
>>> result("Clc1ccc(N2C[C@H]3CC[C@@H](C2)N3)nn1")
54063
>>> result("CC(C)NCC(O)COc1ccc(CC(N)=O)cc1 (racemic) [(±)-Atenolol]")
56468
>>> result("CCCCOC(=O)NS(=O)(=O)c1sc(CC(C)C)cc1-c1ccc(Cn2c(CC)nc3c(C)cc(C)nc32)cc1")
54291
>>> result("CN1C[C@H](O)[C@@H](O)[C@H](O)[C@H]1CO")
53171
>>> result("Br.COc1ccc2c(c1)[C@]13CCCC[C@@H]1[C@H](C2)N(C)CC3.O")
54296
>>> result("COc1ccc2c(c1)CC[C@@H]1[C@@H]2CC[C@]2(C)[C@@H](NCCCCCCN3C(=O)C=CC3=O)CC[C@@H]12")
55186
